Assay Target: human NK1R (Homo sapiens, UniProt P25103)
Sequence (P25103 whole entry): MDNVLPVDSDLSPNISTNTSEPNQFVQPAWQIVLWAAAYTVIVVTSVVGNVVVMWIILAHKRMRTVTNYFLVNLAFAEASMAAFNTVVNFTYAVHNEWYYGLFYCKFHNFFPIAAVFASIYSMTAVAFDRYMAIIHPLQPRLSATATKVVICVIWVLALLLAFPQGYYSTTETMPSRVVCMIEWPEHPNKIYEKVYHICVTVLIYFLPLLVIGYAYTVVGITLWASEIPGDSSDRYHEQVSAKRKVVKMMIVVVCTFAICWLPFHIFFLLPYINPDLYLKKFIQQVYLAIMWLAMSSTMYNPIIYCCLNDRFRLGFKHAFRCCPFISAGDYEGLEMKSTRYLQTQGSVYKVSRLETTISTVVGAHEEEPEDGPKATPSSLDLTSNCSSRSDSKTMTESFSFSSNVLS
Assay Protocol: human NK1R assay: displacement of radiolabelled substance P binding
Condition: radiolabelled substance P; assay as in EP 0 528 495; read-out: IC50 (concentration of the test compound required to reduce by 50% the amount of radiolabelled substance P binding to human NK1R)
pIC50: −log10 of the molar value.
Test Readout: pIC50

a: NC(=O)CNC1(c2ccccc2)CCCCC1OCc1cc(C(F)(F)F)cc(C(F)(F)F)c1 (centres unmarked)
b: NC1(c2ccccc2)CCCCC1OCc1cc(C(F)(F)F)cc(C(F)(F)F)c1 (centres unmarked)
*Q* Lab note: record which item had the higher pIC50, a or b . Mark your answer with the label of the selected entry.
*A* a

---

Assay Target: human NK1R (Homo sapiens, UniProt P25103)
Assay Protocol: human NK1R assay: displacement of radiolabelled substance P binding
Test Readout: pIC50
Entry type: numeric. Quantity: pIC50, the -log10 of concentration in molar units.

*Q* Identify pIC50 associated with the compound Cc1cc(C)cc(COC2CCCCC2(N)c2ccccc2)c1 (stereo not shown)
*A* 7.00
